System: Staphylococcus sp.
protocolDetails: in vitro antibacterial evaluation, MIC by broth dilution
Assay type: cell-based
measurementConditions: broth dilution, 18 hours at 35° C.
# Lookup of reported MIC Staphylococcus aureus (GC 4541) keyed by entry

compound | MIC Staphylococcus aureus (GC 4541)
COc1ccc2cc(COC3C(OC4C(CO)OC(Oc5ccc(CC6NC(=O)C(C(C)c7ccccc7)NC(=O)CNC(=O)C(CO)NC(=O)C(C(O)C7CNC(=N)N7C7OC(CO)C(O)C(O)C7O)NC(=O)C(C(O)C7CNC(=N)N7)NC6=O)cc5)C(O)C4O)OC(CO)C(O)C3O)ccc2c1 (stereo not shown) [Example 230c] | 64 µg/mL
CC(c1ccc(F)cc1)C1NC(=O)CNC(=O)C(CO)NC(=O)C(C(O)C2CNC(=N)N2C2OC(CO)C(O)C(O)C2O)NC(=O)C(C(O)C2CNC(=N)N2)NC(=O)C(Cc2ccc(OC3OC(CO)C(OC4OC(CO)C(O)C(O)C4O)C(O)C3O)cc2)NC1=O (stereo not shown) [Example 261a] | >64 µg/mL
COc1ccc2cc(COC3C(OC4C(CO)OC(Oc5ccc(CC6NC(=O)C(C(C)c7ccccc7)NC(=O)CNC(=O)C(CO)NC(=O)C(CC7CNC(=N)N7C7OC(CO)C(O)C(O)C7O)NC(=O)C(CC7CNC(=N)N7)NC6=O)cc5)C(O)C4O)OC(CO)C(O)C3O)ccc2c1 (stereo not shown) [Example 245c] | 128 µg/mL
CC(c1ccccc1)C1NC(=O)CNC(=O)C(CO)NC(=O)C(CC2CNC(=N)N2C2OC(CO)C(O)C(O)C2O)NC(=O)C(CC2CNC(=N)N2)NC(=O)C(Cc2ccc(OC3OC(CO)C(OC4OC(CO)C(O)C(OCc5ccc(OCc6ccccc6)cc5)C4O)C(O)C3O)cc2)NC1=O (stereo not shown) [Example 246b] | 64 µg/mL

---

System: Enterococcus sp.
protocolDetails: in vitro antibacterial evaluation, MIC by broth dilution
Type: cell-based
measurementConditions: Enterococcus faecalis (GC 2242); broth dilution, 18 hours at 35° C.
# Lookup of reported MIC Enterococcus faecalis (GC 2242) keyed by entry

compound | MIC Enterococcus faecalis (GC 2242)
CC(c1ccccc1)C1NC(=O)CNC(=O)C(CO)NC(=O)C(C(O)C2CNC(=N)N2C2OC(CO)C(O)C(O)C2O)NC(=O)C(C(O)C2CNC(=N)N2)NC(=O)C(Cc2ccc(OC3OC(CO)C(OC4OC(COC(=O)Cc5ccccc5)C(O)C(O)C4O)C(O)C3O)cc2)NC1=O (centres unmarked) [Example 98c] | 8 µg/mL
CC(c1ccccc1)C1NC(=O)CNC(=O)C(CO)NC(=O)C(C(O)C2CNC(=N)N2C2OC(CO)C(O)C(O)C2O)NC(=O)C(C(O)C2CNC(=N)N2)NC(=O)C(Cc2ccc(OC3OC(CO)C(OC4OC5COC(Cc6ccc(F)cc6)OC5C(O)C4O)C(O)C3O)cc2)NC1=O (centres unmarked) | 2 µg/mL

---

System: Enterococcus sp.
protocolDetails: in vitro antibacterial evaluation, MIC by broth dilution
Format: cell-based
measurementConditions: broth dilution, 18 hours at 35° C.
endpoint: MIC Enterococcus faecalis (ATCC 29212) (µg/mL)

compound | unitsOfMeasure | prefixOperator | assayResult
CCCCCCC(=O)OCC1OC(Oc2ccc(CC3NC(=O)C(C(C)c4ccccc4)NC(=O)CNC(=O)C(CO)NC(=O)C(C(O)C4CNC(=N)N4C4OC(CO)C(O)C(O)C4O)NC(=O)C(C(O)C4CNC(=N)N4)NC3=O)cc2)C(O)C(O)C1OC1OC(CO)C(O)C(O)C1O (stereo not shown) [Example 97a] | µg/mL | = | 8
CCCCCC(=O)OCC1OC(Oc2ccc(CC3NC(=O)C(C(C)c4ccccc4)NC(=O)CNC(=O)C(CO)NC(=O)C(C(O)C4CNC(=N)N4C4OC(CO)C(O)C(O)C4O)NC(=O)C(C(O)C4CNC(=N)N4)NC3=O)cc2)C(O)C(O)C1OC1OC(CO)C(O)C(O)C1O (stereo not shown) [Example 95a] | µg/mL | = | 32
CC(c1ccccc1)C1NC(=O)CNC(=O)C(CO)NC(=O)C(C(O)C2CN(Cc3ccc4ccccc4c3)C(=N)N2C2OC(CO)C(O)C(O)C2O)NC(=O)C(C(O)C2CNC(=N)N2)NC(=O)C(Cc2ccc(OC3OC(CO)C(OC4OC(CO)C(O)C(O)C4O)C(O)C3O)cc2)NC1=O (stereo not shown) [Example 67] | µg/mL | = | 128
CC(c1ccccc1)C1NC(=O)CNC(=O)C(CO)NC(=O)C(C(O)C2CN(CCCCCCCCCCC(=O)O)C(=N)N2C2OC(CO)C(O)C(O)C2O)NC(=O)C(C(O)C2CNC(=N)N2)NC(=O)C(Cc2ccc(OC3OC(CO)C(OC4OC(CO)C(O)C(O)C4O)C(O)C3O)cc2)NC1=O (stereo not shown) [Example 72] | µg/mL | > | 128
